// reported protein stability index for each item listed
assay: protein stability index of a GFP-peptide fusion (GPS, HEK-293T) (PSI 1-6); higher = more stable; details: treatment: DMSO; c terminus: a fixed tail appended;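 further: 24-mer peptide tiles fused after GFP, lentivirally expressed, FACS-sorted into six equal bins by GFP/DsRed ratio, decoded by Illumina sequencing, PSI is the read-weighted mean bin number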
No unit in the answer, only the number.

Some entries whose results are on file:
[in] protein stability index lookup needed for ATVVMMTKLEERSRVKCDQYWPSR [PTPRD] , thanks.
[out] 2.42

[in] May I ask what protein stability index has been recorded for VCESMKEQLLVLVEWAKYIPAFCE [HNF4A] ?
[out] 2.51

[in] May I ask what protein stability index has been recorded for DFLCLLGVSYTFDNEDSELNGDYG [MIA2] ?
[out] 2.24

[in] Can you share its protein stability index? I mean this sequence: PEPEDEPGGPGAMTESLEASEFLE [RSPH3]
[out] 5.7

Others:
[in] Data request, read-out protein stability index, for QTLLGTAKMLLHEGQHPAQLRSDV [PYCR3]
[out] 3.28

---

test: protein stability index of a GFP-peptide fusion (GPS, HEK-293T) (PSI 1-6); higher = more stable; conditions: treatment: DMSO; c terminus: a fixed tail appended
Items are presented alongside their recorded protein stability index.

As a guide, the following entries are already answered.
[in] Given the entry NIYENGDVCISILHPPVDDPQSGE [UBE2R2] , report its measured protein stability index.
[out] 4.37

[in] Which protein stability index value is on record for VGRLKRERSMSENAVRQNGQLVRN [MFF] ?
[out] 5

[in] # lookup: protein stability index of PQKTYSVKVLAFTSIGDGPLSSDI [PTPRD]
[out] 2.17

[in] Could you tell me which protein stability index is on file for KIASLLGLLSKTAGFSPDCIMDDA [INTS4] ?
[out] 2.57

[in] Form field: reported protein stability index of VSVPENLPVGTQLLTVTATDRDEG [PCDHGA10]
[out] 5.42

[in] Fill blank: measured protein stability index of the sequence ELYVFGGVRSREDAQGSEMVTCKS [GAN] is ____.
[out] 4.08

Others:
[in] # input sequence: RFALIPAPELVERVQSVDFMRTDP [KLHL14] ; wanted: its protein stability index
[out] 3.26

---

The following sequences are listed with their measured protein stability index values.
assay: protein stability index of a GFP-peptide fusion (GPS, HEK-293T) (PSI 1-6); higher = more stable; conditions: treatment: DMSO; c terminus: a fixed tail appended
Give the figure by itself; no unit, no explanation.

Please review the entries below; each comes with its answer.
[in] Suppose we examine the sequence FAPQTGARPSETFARFCKSQESAL [DNAAF3] ; what protein stability index value has been reported?
[out] 2.5

[in] Entry EDSVSRLEKEIEVLERGDSAPATA [PALM] : reported protein stability index = ?
[out] 5.49

[in] I am curious: what protein stability index value has been reported for WATRKPPAPKSTYECRCIGEEKEM [TIA1] ?
[out] 2.98

[in] Need protein stability index, item RNDKIKHVQNQVDEVIDVMQENIT [VAMP4]
[out] 4.51

[in] Request the reported protein stability index associated with KREREVDEDSEPEREVRAKNGRVD [USP39]
[out] 5.46

[in] Can you share its protein stability index? I mean this sequence: QQKLVIDTVTEVTARMEMLIEELY [CBY2]
[out] 2.55

Then this sequence:
[in] Quick one: protein stability index for LLFINHRLVESTSLRKAIETVYAA [MLH1] ?
[out] 2.2
